biological target: JAK2 (Homo sapiens, UniProt O60674); construct: All four purified enzymes contain only the catalytic domain; His (N); assay: JAK2 kinase assay (HTRF, inhibition of phosphorylation of a synthetic peptide); conditions: catalytic domain, His-tag; 4 μM ATP (Km); read-out: JAK2 kinase inhibitory activity (EC50)
Sequence (O60674 849-1124 limits assumed): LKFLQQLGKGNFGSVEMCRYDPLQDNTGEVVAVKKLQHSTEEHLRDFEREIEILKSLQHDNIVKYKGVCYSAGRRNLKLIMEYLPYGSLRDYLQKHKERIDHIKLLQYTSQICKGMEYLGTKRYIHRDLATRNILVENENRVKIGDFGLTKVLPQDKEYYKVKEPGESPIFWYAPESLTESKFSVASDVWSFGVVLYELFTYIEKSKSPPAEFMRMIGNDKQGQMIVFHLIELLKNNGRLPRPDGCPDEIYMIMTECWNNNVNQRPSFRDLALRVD
pEC50: −log10 of the molar value.
metric: pEC50

{"query smiles": "O=C(c1cnsc1)N1CCN(c2ncnc3[nH]ccc23)CC2(CC2)C1", "pEC50": "6.00 to 7.00"}

Answer for every listed entry: what is its pEC50? The entries follow.
1. Cc1ncccc1C(=O)N1CCN(c2ncnc3[nH]ccc23)CC2(CC2)C1
2. O=C(c1ccnc(O)c1)N1CCN(c2ncnc3[nH]ccc23)CC2(CC2)C1
3. N#Cc1cccc(OCC(=O)N2CCN(c3ncnc4[nH]ccc34)CC3(CC3)C2)c1
4. N#CCOc1cccc(CC(=O)N2CCN(c3ncnc4[nH]ccc34)CC3(CC3)C2)c1
5. CCCc1csc(C(=O)N2CCN(c3ncnc4[nH]ccc34)CC3(CC3)C2)c1
6. CCCCS(=O)(=O)N1CCN(c2ncnc3[nH]ccc23)CC2(CC2)C1

1. < 6.00
2. 6.00 to 7.00
3. > 7.00
4. 6.00 to 7.00
5. 6.00 to 7.00
6. 6.00 to 7.00

# lookup: pEC50 of CC(C)N(C)C(=O)N1CCN(c2ncnc3[nH]ccc23)CC2(CC2)C1
6.00 to 7.00
